Hello, the source for this data is ChEMBL document CHEMBL5120904, in case you need it.

- Test system: Staphylococcus epidermidis
- test description: Antibacterial activity against Staphylococcus epidermidis ATCC12228 measured after 24 hrs by broth microdilution method
- Type: functional
# reported MIC; entries follow

Past entries and their recorded results:
>  <molecule>
C=C1NC(=O)[C@@H](CC)NC(=O)CNC(=O)[C@](C)(C(C)=O)NC(=O)[C@H](Cc2c[nH]c3cccc(OC)c23)NC(=O)c2csc(n2)[C@@H](C)NC(=O)CN(C)C1=O

>  <MIC>
5 µg/mL

$$$$
>  <molecule>
C[C@H]1COc2c(N3CCN(C)CC3)c(F)cc3c(=O)c(C(=O)O)cn1c23.C[C@H]1COc2c(N3CCN(C)CC3)c(F)cc3c(=O)c(C(=O)O)cn1c23.O

>  <MIC>
0.16 µg/mL

$$$$
>  <molecule>
CN[C@H](CC(C)C)C(=O)N[C@H]1C(=O)N[C@@H](CC(N)=O)C(=O)N[C@H]2C(=O)N[C@H]3C(=O)N[C@H](C(=O)N[C@H](C(=O)O)c4cc(O)cc(O)c4-c4cc3ccc4O)[C@H](O)c3ccc(c(Cl)c3)Oc3cc2cc(c3O[C@@H]2O[C@H](CO)[C@@H](O)[C@H](O)[C@H]2O[C@H]2C[C@](C)(N)[C@H](O)[C@H](C)O2)Oc2ccc(cc2Cl)[C@H]1O

>  <MIC>
1.25 µg/mL

$$$$

Recorded MIC for Cc1onc(-c2ccccc2)c1C(=O)N[C@@H]1C(=O)N2[C@@H]1SC(C)(C)[C@@H]2C(=O)O , please?
0.16 µg/mL

One more compound: C/C=C1\NC(=O)[C@@H](CC)NC(=O)CNC(=O)[C@](C)([C@@H](C)O)NC(=O)[C@H](Cc2c[nH]c3cccc(OC)c23)NC(=O)c2csc(n2)[C@@H](C)NC(=O)CN(C)C1=O
0.62 µg/mL

Next compound up: CO[C@H]1/C=C/O[C@@]2(C)Oc3c(C)c(O)c4c(O)c(c(/C=N/N5CCN(C)CC5)c(O)c4c3C2=O)NC(=O)/C(C)=C\C=C\[C@H](C)[C@H](O)[C@@H](C)[C@@H](O)[C@@H](C)[C@H](OC(C)=O)[C@@H]1C
< 0.078 µg/mL

// next record C/C=C1\NC(=O)[C@@H](CC)NC(=O)CNC(=O)[C@](C)(C(C)=O)NC(=O)[C@H](Cc2c[nH]c3cccc(OC)c23)NC(=O)c2csc(n2)[C@@H](C)NC(=O)CNC1=O
160 µg/mL

Now consider C/C=C1\NC(=O)[C@@H](CC)NC(=O)CNC(=O)[C@](C)(C(C)=O)NC(=O)[C@H](Cc2c[nH]c3cccc(OC)c23)NC(=O)c2csc(n2)[C@@H](C)NC(=O)CN(C)C1=O and answer again.
2.5 µg/mL

Try C/C=C1\NC(=O)[C@@H](C)NC(=O)CNC(=O)[C@@H](CC)NC(=O)[C@H](Cc2c[nH]c3cccc(OC)c23)NC(=O)c2csc(n2)[C@@H](C)NC(=O)CN(C)C1=O next.
> 160 µg/mL

Request: C/C=C1\NC(=O)[C@@H](CC)NC(=O)CNC(=O)[C@](C)([C@H](C)O)NC(=O)[C@H](Cc2c[nH]c3cccc(OC)c23)NC(=O)c2csc(n2)[C@@H](C)NC(=O)CN(C)C1=O
1.25 µg/mL

Record: C/C=C1\NC(=O)[C@@H](C)NC(=O)CNC(=O)[C@](C)(C(C)=O)NC(=O)[C@H](Cc2c[nH]c3cccc(OC)c23)NC(=O)c2csc(n2)[C@@H](C)NC(=O)CNC1=O
> 160 µg/mL
